assay: M. tuberculosis growth inhibition, HTS (AID 449762);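 also: bacterial growth assessed after seven days of incubation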; conditions: M. tuberculosis H37Rv growth inhibition, 7H9 media; at 25 µM; active compounds read high
Out of some 330,000 compounds screened, about 1,900 (0.58%) were called active. Another 4% or so got no clear call; they are omitted. These entries were drawn from the full list. Measured potencies and affinities stand elsewhere.
PARAMETER_MEASURED: inhibition (%)
Provide only the numeric value, understood in %.

Looking for the measured inhibition of `CNC(=O)COc1ccc(Nc2nnc(-c3ccc(C)c(S(N)(=O)=O)c3)c3ccccc23)cc1` , can you help?
3.37

Given the entry CC(=O)N1CCCc2cc(S(=O)(=O)NC(C(=O)NCc3ccc(C)cc3)C(C)C)ccc21 (configuration not stated) , report its measured inhibition.
9.01

// lookup inhibition for `CC(C)c1ccc(OC(=O)c2cccc(S(=O)(=O)N3CCN(C)CC3)c2)cc1`
10.8

Fill in: inhibition of `COc1ccc(/C=C/C(=O)Oc2cccc(/C=N/NC(=O)c3cccc(F)c3)c2)cc1` is ___
7.76

Value lookup for inhibition; key = `C[C@H]1CC[C@]2(O[C@H](CCO)C[C@H](O)[C@H]2O)O1`
3.36

Consider the compound shown here: `COc1ccc(CCNc2nc(-c3ccc(O)cc3)cs2)cc1OC` What is its recorded inhibition?
3.36

Given the compound `COCCCNC(=O)c1sc2ncnc(N3CCc4ccccc4C3)c2c1C` , what is its reported inhibition?
22.6

// returns reported inhibition for input `O=C(Nc1cnn(Cc2ccccc2)c1)c1cc2nc(-c3ccco3)cc(C(F)(F)F)n2n1`
1.16

# get_value(readout='inhibition', item= CCN1CCN(C(c2ccccc2)c2nnnn2Cc2ccc3c(c2)OCO3)CC1 (configuration not stated) )
-1.8

Can you look up the measured inhibition of Cc1nn(C)c(C)c1Nc1ccc(N2C(=O)C3C4C=CC(C4)C3C2=O)cc1[N+](=O)[O-] (configuration not stated) for me?
10.1

Looking for the measured inhibition of `OC[C@H]1O[C@@H](n2cnc3c(NC4CCCC4)ncnc32)[C@H](O)[C@@H]1O` , can you help?
-4.16

Item CC(NC(=S)NCCN1CCOCC1)C12CC3CC(CC(C3)C1)C2 (configuration not stated) has what recorded inhibition?
-0.91

Give its inhibition value. Item: `CCOC(=O)c1cc(C)nc(SC)c1C#N`
6.64

Recorded inhibition of `CCN(CC)C(=O)CN1CCC(c2nc3cc(C)c(C)cc3[nH]2)CC1` , please.
-1.85

May I ask what inhibition has been recorded for `COc1ccc(OC)c(NS(=O)(=O)Cc2ccccc2)c1` ?
-14.1

Which inhibition value belongs to `COc1ccc(OC)c(NC2=NCCCS2)c1` ?
-1.69

// query inhibition value for entry `Cc1cccc(C)c1NC(=O)CN(C)C(=O)c1ccccc1Cc1ccccc1`
2.81

For `O=c1[nH]c2ccccc2nc1/C=C(\O)C1CC1` , what is its reported inhibition?
-0.58

I am curious: what inhibition value has been reported for CCN1CCN(CC2COc3ccccc3O2)CC1 (configuration not stated) ?
-2.32

Need inhibition of `COc1ccc(OCCN2C(=O)c3ccccc3C2=O)c([N+](=O)[O-])c1` , thanks.
-4.41

For the compound Cc1ccc(NC(=O)C(C)N=C2NS(=O)(=O)c3ccccc32)cc1F (configuration not stated) , what inhibition is on record?
11

So what's the measured inhibition for this one? C=CCn1c(C(C)NC(=O)c2cccs2)n[nH]c1=S (configuration not stated)
-3.28
